B1: Transcription elongation factor A N-terminal and central domain-containing protein, residues 30 to 77; numbered along this chain, Q8N8B7 (parent)
chain: LTELETIYVTKEHLQETDVVRAVYRVLKNCPSVALKKKAKCLLSKWKA

- Variants of: B1
- ASSAY_PROCEDURE: abundance fitness (aPCA) (normalised: wild type 0, dead -1); higher = more abundant; growth selection in yeast, the domain comes from the species named
- ASSAY_CONDITIONS: Homo sapiens
PROPERTY_MEASURED: abundance fitness
Give bare numbers.

MUTATION_DESCRIPTOR: T2D
PROPERTY_MEASURED: abundance fitness
VALUE_OBSERVED: 0.107

MUTATION_DESCRIPTOR: E5L
PROPERTY_MEASURED: abundance fitness
VALUE_OBSERVED: -0.28

For the 7 variants below, give their abundance fitness values.
1. C41S
2. L1T
3. R25S
4. K37R
5. L42S
6. V9N
7. W46V

1: 0.093; 2: 0.251; 3: -0.257; 4: 0.023; 5: -0.77; 6: 0.232; 7: -0.035

For the 2 variants below, give their abundance fitness values.
1. R21D
2. T2A

1: -0.759; 2: -0.385

The reported numbers originate from the Human Domainome abundance scans (Beltran et al. 2025).
